Values were extracted from patent US20260008783A1.

- ASSAYED_TARGET: Follicle Stimulating Hormone Receptor (FSHR) (Homo sapiens)
- Construct: HA (N)
- Sequence (P23945 18-695): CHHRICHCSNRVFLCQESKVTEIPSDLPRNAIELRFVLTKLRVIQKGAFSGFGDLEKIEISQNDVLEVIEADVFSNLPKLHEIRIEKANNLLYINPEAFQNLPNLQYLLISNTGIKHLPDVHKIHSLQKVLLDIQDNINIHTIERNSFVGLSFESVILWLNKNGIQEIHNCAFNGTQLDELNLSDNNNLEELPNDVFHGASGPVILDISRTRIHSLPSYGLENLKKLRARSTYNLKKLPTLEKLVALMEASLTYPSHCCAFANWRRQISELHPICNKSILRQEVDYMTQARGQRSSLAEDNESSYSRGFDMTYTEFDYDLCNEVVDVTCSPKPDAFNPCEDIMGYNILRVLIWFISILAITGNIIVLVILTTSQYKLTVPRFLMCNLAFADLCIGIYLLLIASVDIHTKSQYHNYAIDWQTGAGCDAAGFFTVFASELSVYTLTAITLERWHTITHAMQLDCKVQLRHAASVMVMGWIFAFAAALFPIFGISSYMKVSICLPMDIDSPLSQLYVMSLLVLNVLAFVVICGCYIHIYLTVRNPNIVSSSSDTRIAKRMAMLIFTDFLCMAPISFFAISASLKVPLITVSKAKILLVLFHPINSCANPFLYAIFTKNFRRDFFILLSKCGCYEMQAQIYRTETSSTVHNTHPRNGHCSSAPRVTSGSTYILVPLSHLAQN
- ASSAY_REMARKS: HTRF cAMP agonist assay, FSHR, transiently transfected CHO-K1 cells
- TEST_SETTINGS: CHO-K1 cells transiently expressing human FSHR, read-out: IC50 FSHR LANCE CAMP
pIC50: −log10 of the molar value.
# if value of pIC50 reaches 7, tag fulfilled; if it stays below, tag not fulfilled

Sample answers from the record:
COc1cc2c(cc1-c1cncc(C(N)=O)c1)-c1c(c(C(=O)N(C)C(C)(C)CO)nn1-c1cc(Cl)cc(Cl)c1)CC2 ... not fulfilled
COc1cc2c(cc1-c1cncc(C(N)=O)c1)-c1c(c(C(=O)N(C)C(C)(C)C)nn1-c1cc(Cl)cc(Cl)c1)CC2 ... fulfilled
COc1cc2c(cc1-c1cncc(C(N)=O)c1)-c1c(c(C(=O)N3CCNC(=O)C3(C)C)nn1CC(C)C)CC2 [Compound 13-09] ... not fulfilled

Turning to the following compound.
Query block: Test whether the compound COc1cc2c(cc1-c1cncc(C(N)=O)c1)-c1c(c(C(=O)N3CCOCC3(C)C)nn1-c1ccsc1)C2 records pIC50 of 7 or higher.
Result block: fulfilled
